Test system: human Na,K-ATPase α2β3FXYD1
Test: biochemical
Assay type: biochemical
READOUT_LABEL: Selectivity Ki ratio α1β1/α2β3

Previously resolved entries follow.
CC1CN(C2CCCCC2)CCC(O[C@@H]2C(C)O[C@@H](OC3C(C)OC(O[C@H]4CC[C@@]5(C)C(CCC6C5CC(O)[C@]5(C)[C@@H](C7=CC(=O)OC7)CC[C@]65O)C4)C[C@@H]3O)C[C@@H]2O)O1 (stereo in doubt)	10-12
CC1CN(CCC2CC2)CCC(O[C@@H]2C(C)O[C@@H](OC3C(C)OC(O[C@H]4CC[C@@]5(C)C(CCC6C5CC(O)[C@]5(C)[C@@H](C7=CC(=O)OC7)CC[C@]65O)C4)C[C@@H]3O)C[C@@H]2O)O1 (stereo in doubt)	10-12

Please find the next compound below.
Output measured Selectivity Ki ratio α1β1/α2β3 for this item: CC1CN(Cc2ccccc2)CCC(O[C@@H]2C(C)O[C@@H](OC3C(C)OC(O[C@H]4CC[C@@]5(C)C(CCC6C5CC(O)[C@]5(C)[C@@H](C7=CC(=O)OC7)CC[C@]65O)C4)C[C@@H]3O)C[C@@H]2O)O1 (stereo in doubt) 10-12
